system_name: CAI-1 autoinducer sensor kinase/phosphatase CqsS (Vibrio cholerae serotype O1 (strain ATCC 39315 / El Tor Inaba N16961), UniProt Q9KM66)
protocol_notes: Agonist activity at CqsS receptor in cqsA-deficient, luxQ-deficient Vibrio cholerae MM920 harboring cosmid pBB1 carrying Vibrio harveyi luxCDABE gene assessed as induction of quorum sensing regulated bioluminescence after 4 hrs by scintillation counting
metric_name: pEC50
Expect pEC50 as a plain number equal to -log10 of the molar concentration.

molecule | pEC50
CCCCCCCCC(=O)[C@@H](O)CC | 5.96
CCCCCCCCCC(=O)C(=O)CC | 5.49
CCCCCCCCCC(=O)[C@H](C)O | 6.47

For record CCCCCCCCCC(=O)C(S)CC (stereo not given) the listed pEC50 is 5.80

----------
system_name: CAI-1 autoinducer sensor kinase/phosphatase CqsS (Vibrio cholerae serotype O1 (strain ATCC 39315 / El Tor Inaba N16961)) (UniProt Q9KM66)
Sequence (whole entry): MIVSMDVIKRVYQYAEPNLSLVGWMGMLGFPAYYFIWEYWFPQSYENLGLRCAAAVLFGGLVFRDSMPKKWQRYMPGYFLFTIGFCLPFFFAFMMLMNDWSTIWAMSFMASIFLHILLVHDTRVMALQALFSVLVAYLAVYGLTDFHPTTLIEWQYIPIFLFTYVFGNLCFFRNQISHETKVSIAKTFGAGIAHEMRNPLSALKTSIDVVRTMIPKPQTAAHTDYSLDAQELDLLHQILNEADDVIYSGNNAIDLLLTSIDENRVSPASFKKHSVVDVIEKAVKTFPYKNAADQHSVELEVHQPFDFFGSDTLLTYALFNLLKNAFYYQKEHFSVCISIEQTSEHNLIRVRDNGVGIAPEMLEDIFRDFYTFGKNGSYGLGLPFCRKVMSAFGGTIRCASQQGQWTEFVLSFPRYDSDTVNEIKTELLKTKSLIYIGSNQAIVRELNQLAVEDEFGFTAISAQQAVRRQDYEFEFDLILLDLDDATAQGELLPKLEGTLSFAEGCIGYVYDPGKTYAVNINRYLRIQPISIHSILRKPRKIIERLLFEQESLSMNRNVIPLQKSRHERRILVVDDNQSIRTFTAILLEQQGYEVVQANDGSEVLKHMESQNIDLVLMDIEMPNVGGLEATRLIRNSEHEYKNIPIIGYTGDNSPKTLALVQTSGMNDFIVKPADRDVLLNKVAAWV
protocol_notes: Ratio of compound EC50 to (S)-CAI-1 EC50 for CqsS receptor in cqsA-deficient, luxQ-deficient Vibrio cholerae MM920 harboring cosmid pBB1 carrying Vibrio harveyi luxCDABE gene assessed as induction of quorum sensing regulated bioluminescence after 4 hrs by scintillation counting
metric_name: Ratio EC50
Provide a numeric answer; units are not to be included.

compound | Ratio EC50
CCCCCCCCCC(=O)C(O)CCC (racemic) | 6

Next up:
The measured Ratio EC50 associated with "CCCCCCCCC(=O)[C@H](O)CC" reads 6.7

----------
Readings of Ratio EC50 for the listed molecules
system_name: CAI-1 autoinducer sensor kinase/phosphatase CqsS (Vibrio cholerae serotype O1 (strain ATCC 39315 / El Tor Inaba N16961)) (UniProt Q9KM66)
protocol_notes: Ratio of compound EC50 to (S)-CAI-1 EC50 for CqsS receptor in cqsA-deficient, luxQ-deficient Vibrio cholerae MM920 harboring cosmid pBB1 carrying Vibrio harveyi luxCDABE gene assessed as induction of quorum sensing regulated bioluminescence after 4 hrs by scintillation counting
The answer should be a number; do not append a unit.

Worked cases, Ratio EC50 given:
molecule | metric_name | assay_result
CCCCCCCCCC(O)C(=O)CC (configuration not stated) | Ratio EC50 | 84
CCCCCCCCCC(=O)C(=O)CC | Ratio EC50 | 14
CCCCCCCCC(=O)[C@@H](O)CC | Ratio EC50 | 4.6

Now turn to the next molecule.
According to the records, this molecule "CCCCCCCCCC(=O)[C@H](C)O" displays Ratio EC50 of 2.6

----------
Recorded IC50 by entry
system_name: CAI-1 autoinducer sensor kinase/phosphatase CqsS (Vibrio cholerae serotype O1 (strain ATCC 39315 / El Tor Inaba N16961), UniProt Q9KM66)
protocol_notes: Antagonist activity at CqsS receptor in Vibrio cholerae MM920 assessed as inhibition of quorum sensing regulated CAI-1 induced bioluminescence after 4 hrs by scintillation counting
Assay type: functional
Numeric answer only, unit µM assumed.

Recorded IC50, per entry:
molecule | units_symbol | assay_result
CCCCCCCCCC(=O)C(O)c1ccc(C)cc1 (racemic) | µM | 114
CCCCCCCCCC(=O)C(O)c1ccc(O)cc1 (racemic) | µM | 78
CCCCCCCCCC(=O)C(O)c1cccc(O)c1 (racemic) | µM | 36
CCCCCCCCCC(=O)C(O)Cc1ccccc1 (racemic) | µM | 136
CCCCCCCCCC(=O)C(O)c1ccc(F)cc1 (racemic) | µM | 137
CCCCCCCCCC(=O)C(O)c1cccc(C)c1 (racemic) | µM | 46
CCCCCCCCCC(=O)C(O)c1ccccc1 (racemic) | µM | 55
CCCCCCCCCC(=O)C(O)c1ccc(O)c(O)c1 (racemic) | µM | 174
CCCCCCCCCC(=O)C(O)c1cccc(F)c1 (racemic) | µM | 178

Now look at this entry.
The value of IC50 measured for the molecule CCCCCCCCCC(=O)C(O)c1ccc(Br)cc1 (racemic) turned out to be 185

----------
system_name: CAI-1 autoinducer sensor kinase/phosphatase CqsS (Vibrio cholerae serotype O1 (strain ATCC 39315 / El Tor Inaba N16961)) (UniProt Q9KM66)
protocol_notes: Agonist activity at CqsS receptor in cqsA-deficient, luxQ-deficient Vibrio cholerae MM920 harboring cosmid pBB1 carrying Vibrio harveyi luxCDABE gene assessed as quorum sensing regulated bioluminescence after 4 hrs by scintillation counting relative to (S)-CAI-1
Format: functional
metric_name: Emax (%)
Respond numerically; units are % and should not be typed.

molecule | units_symbol | Emax
CCCCCCCCCC(=O)[C@H](C)O | % | 96

The molecule identified as CCCCCCCCCC(=O)C(O)C(C)C (racemic) registered its Emax at 71

GET /value?item= CCCCCCCCCC(=O)C(N)CC.Cl (stereo not drawn) &field=Emax returns 105

Emax measured on CCCCCCCCCC(=O)C(S)CC (stereo not drawn) = 67

----------
system_name: CAI-1 autoinducer sensor kinase/phosphatase CqsS (Vibrio cholerae serotype O1 (strain ATCC 39315 / El Tor Inaba N16961), UniProt Q9KM66)
protocol_notes: Antagonist activity at CqsS receptor in Vibrio cholerae MM920 assessed as inhibition of quorum sensing regulated CAI-1 induced bioluminescence after 4 hrs by scintillation counting
Catalogue of IC50 values

Here's what some known entries look like.
compound | metric_name | assay_result
CCCCCCCCCC(=O)C(O)c1cccc(Br)c1 (racemic) | IC50 | > 500 µM
CCCCCCCCCC(=O)C(O)c1ccccc1F (racemic) | IC50 | 74 µM
CCCCCCCCCC(=O)C(O)c1ccc(Cl)cc1 (racemic) | IC50 | > 500 µM
CCCCCCCCCC(=O)C(O)c1ccccc1O (racemic) | IC50 | 172 µM
CCCCCCCCCC(=O)C(O)c1ccccc1OC (racemic) | IC50 | > 500 µM

Now turn to the next compound.
Entry CCCCCCCCCC(=O)C(O)c1ccccc1Cl (racemic) — recorded IC50 = > 500 µM

----------
system_name: CAI-1 autoinducer sensor kinase/phosphatase CqsS (Vibrio cholerae serotype O1 (strain ATCC 39315 / El Tor Inaba N16961))
protocol_notes: Antagonist activity at CqsS receptor in Vibrio cholerae MM920 assessed as inhibition of quorum sensing regulated CAI-1 induced bioluminescence after 4 hrs by scintillation counting relative to Ph-CAI-1
Format: functional
// reported Imax for each item listed
Respond numerically; units are % and should not be typed.

Example entries begin here.
compound | Imax [%]
CCCCCCCCCC(=O)C(O)c1ccc(F)cc1 (racemic) | 125
CCCCCCCCCC(=O)C(O)c1ccccc1O (racemic) | 144
CCCCCCCCCC(=O)C(O)c1ccc(Br)cc1 (racemic) | 71
CCCCCCCCCC(=O)C(O)c1ccc(C)cc1 (racemic) | 99
CCCCCCCCCC(=O)C(O)c1cccc(F)c1 (racemic) | 112

Consider CCCCCCCCCC(=O)C(O)c1ccccc1 (racemic) . Its measured Imax is 100

The compound listed as CCCCCCCCCC(=O)C(O)Cc1ccccc1 (racemic) has a reported Imax of 124

Item: CCCCCCCCCC(=O)C(O)c1cccc(O)c1 (racemic) | Imax: 123

// sample CCCCCCCCCC(=O)C(O)c1cc(F)ccc1F (racemic) , its Imax was 48

Form: compound = CCCCCCCCCC(=O)C(O)c1ccc(O)c(O)c1 (racemic) ; Imax = 122

// Imax lookup, compound = CCCCCCCCCC(=O)C(O)c1ccccc1F (racemic) , result: 105

Field Imax (entry CCCCCCCCCC(=O)C(O)c1ccc(O)cc1 (racemic) ) reads 119

get_value(item= CCCCCCCCCC(=O)C(O)c1cccc(C)c1 (racemic) , readout=Imax) returns 58

Data origin, for the record: ChEMBL document CHEMBL1921757
